molecular target: recombinant PRL-3 (Homo sapiens, UniProt O75365); construct: 6xHis (N, cleaved yes); made in house; host or cells: E. coli One Shot BL21 Star; test: In vitro phosphatase assay (DiFMUP hydrolysis), PRL-3; type: biochemical; details: FDA-approved drug screen; compared to DMSO; also: test concentration or dose not given here
Sequence (O75365 whole entry): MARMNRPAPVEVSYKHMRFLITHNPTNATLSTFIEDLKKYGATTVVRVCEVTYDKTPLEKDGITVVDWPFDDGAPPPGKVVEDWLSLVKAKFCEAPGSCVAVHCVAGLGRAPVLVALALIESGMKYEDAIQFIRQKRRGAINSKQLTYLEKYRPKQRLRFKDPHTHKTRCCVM
outcome_measure: % Phosphatase Activity (compared to DMSO) PRL-3

Recorded results for 5 compounds are shown here.
[
  {
    "compound": "CCOC(=O)C1=C(C)NC(C)=C(C(=O)OC)C1c1cccc(Cl)c1Cl (stereo not drawn)",
    "assay_result": "132%"
  },
  {
    "compound": "CC(C)c1nc(CN(C)C(=O)N[C@H](C(=O)N[C@@H](Cc2ccccc2)C[C@H](O)[C@H](Cc2ccccc2)NC(=O)OCc2cncs2)C(C)C)cs1",
    "assay_result": "90%"
  },
  {
    "compound": "CCOC(=O)C1=C[C@@H](OC(CC)CC)[C@H](NC(C)=O)[C@@H](N)C1 [Oseltamivir Phosphate]",
    "assay_result": "94%"
  },
  {
    "compound": "O=C(/C=C/C=C/c1ccc2c(c1)OCO2)N1CCCCC1",
    "assay_result": "106%"
  },
  {
    "compound": "CCCCc1nc2cc(/C=C/C(=O)NO)ccc2n1CCN(CC)CC [Pracinostat (SB939)]",
    "assay_result": "80%"
  }
]

Continue with the next compound.
Task: Endpoint output: % Phosphatase Activity (compared to DMSO) PRL-3 of "Nc1nc(N)nc(NC2CC2)n1" . Value?
Result: 78%

---

biological target: recombinant PRL-2 (Homo sapiens, UniProt Q12974); construct: 6xHis (N, cleaved yes); made in house; host or cells: E. coli One Shot BL21 Star; experiment: In vitro phosphatase assay (DiFMUP hydrolysis), PRL-2; format: biochemical; conditions: FDA-approved drug screen; compared to DMSO;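 also: PRL-2 activity read as DiFMUP hydrolysis after 20 min at room temperature with drug, enzyme first pre-reduced at 4 °C for 20 min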
Sequence (Q12974 whole entry): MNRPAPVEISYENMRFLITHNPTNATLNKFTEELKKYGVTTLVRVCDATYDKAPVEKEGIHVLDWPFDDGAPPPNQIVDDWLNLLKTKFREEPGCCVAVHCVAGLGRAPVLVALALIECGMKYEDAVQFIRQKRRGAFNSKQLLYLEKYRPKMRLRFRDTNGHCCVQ
Listed below: % Phosphatase Activity (compared to DMSO) PRL-2 values for each entry.
State just the number; it will be interpreted in %.

Recorded results for 3 molecules are shown here.
[
  {
    "molecule": "COc1ccc(C2CNC(=O)C2)cc1OC1CCCC1 (stereo not shown)",
    "u": "%",
    "assay_result": 104
  },
  {
    "molecule": "S=C(NCc1ccc2c(c1)OCO2)N1CCN(c2ncnc3c2oc2ccccc23)CC1",
    "u": "%",
    "assay_result": 100
  },
  {
    "molecule": "CO/N=C(\\C(=O)N[C@@H]1C(=O)N2C(C(=O)O)=C(COC(N)=O)CS[C@H]12)c1ccco1 [Cefuroxime sodium]",
    "u": "%",
    "assay_result": 96
  }
]

Continue with the next molecule.
Task: Endpoint output: % Phosphatase Activity (compared to DMSO) PRL-2 of O=c1[nH]c(=O)n(C2CCCO2)cc1F (stereo not shown) . Value?
Result: 95

---

Listed below: % Phosphatase Activity (compared to DMSO) PRL-1 values for each entry.
Biological target: recombinant PRL-1 (Homo sapiens, UniProt Q93096)
Construct: 6xHis (N, cleaved yes); made in house; host or cells: E. coli One Shot BL21 Star
Sequence (Q93096 1-173): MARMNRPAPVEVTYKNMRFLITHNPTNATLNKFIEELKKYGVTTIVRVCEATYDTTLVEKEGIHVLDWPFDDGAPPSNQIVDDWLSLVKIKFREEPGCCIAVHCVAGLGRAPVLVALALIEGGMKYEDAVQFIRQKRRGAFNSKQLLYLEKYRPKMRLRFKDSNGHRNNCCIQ
Assay: In vitro phosphatase assay (DiFMUP hydrolysis), PRL-1
Assay type: biochemical
Conditions: FDA-approved drug screen; compared to DMSO
Structures can show the parent of a compound that is named as a salt.
State just the number; it will be interpreted in %.

[
  {
    "molecule": "CN1CCN(c2ccc(C(=O)Nc3n[nH]c4ccc(Cc5cc(F)cc(F)c5)cc34)c(NC3CCOCC3)c2)CC1 [Entrectinib (RXDX-101)]",
    "assay_system": "recombinant PRL-1 (Homo sapiens, UniProt Q93096)",
    "u": "%",
    "assay_result": 344
  },
  {
    "molecule": "OC[C@H]1O[C@@H](c2ccc(Cl)c(Cc3ccc(O[C@H]4CCOC4)cc3)c2)[C@H](O)[C@@H](O)[C@@H]1O [Empagliflozin (BI 10773)]",
    "assay_system": "recombinant PRL-1 (Homo sapiens, UniProt Q93096)",
    "u": "%",
    "assay_result": 109
  },
  {
    "molecule": "C=C1C[C@@H]2[C@H](CC[C@]3(C)C(=O)CC[C@@H]23)[C@@]2(C)C=CC(=O)C=C12 [Exemestane]",
    "assay_system": "recombinant PRL-1 (Homo sapiens, UniProt Q93096)",
    "u": "%",
    "assay_result": 95
  },
  {
    "molecule": "Cc1cc(C(C)(C)C)c(O)c(C)c1CC1=NCCN1 [Oxymetazoline hydrochloride]",
    "assay_system": "recombinant PRL-1 (Homo sapiens, UniProt Q93096)",
    "u": "%",
    "assay_result": 99
  },
  {
    "molecule": "O=C(CCCN1CCN(c2ccccn2)CC1)c1ccc(F)cc1 [Azaperone]",
    "assay_system": "recombinant PRL-1 (Homo sapiens, UniProt Q93096)",
    "u": "%",
    "assay_result": 96
  }
]

Task: Endpoint output: % Phosphatase Activity (compared to DMSO) PRL-1 of COc1ccc(C[C@H](N)C(=O)N[C@H]2[C@@H](O)[C@H](n3cnc4c(N(C)C)ncnc43)O[C@@H]2CO)cc1.Cl.Cl [Puromycin 2HCl] . Value?
Result: 106

Task: Endpoint output: % Phosphatase Activity (compared to DMSO) PRL-1 of CC1=C(C(=O)OC(C)C)C(c2cccc([N+](=O)[O-])c2)C(C(=O)OC2CN(C(c3ccccc3)c3ccccc3)C2)=C(N)N1 (stereo not shown) [Azelnidipine] . Value?
Result: 93

---

biological target: recombinant PRL-1 (Homo sapiens, UniProt Q93096); construct: 6xHis (N, cleaved yes); made in house; host or cells: E. coli One Shot BL21 Star; experiment: In vitro phosphatase assay (DiFMUP hydrolysis), PRL-1; assay type: biochemical; conditions: FDA-approved drug screen; compared to DMSO; also: test concentration or dose not given here
Structures can show the parent of a compound that is named as a salt.
outcome_measure: % Phosphatase Activity (compared to DMSO) PRL-1 (%)
State just the number; it will be interpreted in %.

Recorded results for 3 compounds are shown here.
[
  {
    "compound": "CCOC(=O)C1=C(C)NC(C)=C(C(=O)OCC)C1c1ccccc1/C=C/C(=O)OC(C)(C)C",
    "assay_result": 232
  },
  {
    "compound": "COc1ccc([C@@H]2Sc3ccccc3N(CCN(C)C)C(=O)[C@@H]2OC(C)=O)cc1 [Diltiazem HCl]",
    "assay_result": 94
  },
  {
    "compound": "CCCCOC(=O)c1ccc(N)cc1",
    "assay_result": 91
  }
]

Continue with the next compound.
Task: Endpoint output: % Phosphatase Activity (compared to DMSO) PRL-1 of "CC(C)/N=c1\cc2n(-c3ccc(Cl)cc3)c3ccccc3nc-2cc1Nc1ccc(Cl)cc1" . Value?
Result: 78

---

biological target: recombinant PRL-3 (Homo sapiens, UniProt O75365); construct: 6xHis (N, cleaved yes); made in house; host or cells: E. coli One Shot BL21 Star; test: In vitro phosphatase assay (DiFMUP hydrolysis), PRL-3; format: biochemical; conditions: FDA-approved drug screen; compared to DMSO; also: test concentration or dose not given here
Structures can show the parent of a compound that is named as a salt.
Listed below: % Phosphatase Activity (compared to DMSO) PRL-3 values for each entry.
State just the number; it will be interpreted in %.

[
  {
    "compound": "O=C1O[C@H](CO)[C@@H](O)[C@H](O)[C@H]1O",
    "assay_result": 82
  }
]

Task: Please tell me: % Phosphatase Activity (compared to DMSO) PRL-3 of "CCCCCOC(=O)Nc1nc(=O)n([C@@H]2O[C@H](C)[C@@H](O)[C@H]2O)cc1F" , system recombinant PRL-3 (Homo sapiens, UniProt O75365)?
Result: 97

Task: Please tell me: % Phosphatase Activity (compared to DMSO) PRL-3 of CN(C)CCC=C1c2ccccc2CCc2ccccc21 [Amitriptyline HCl] , system recombinant PRL-3 (Homo sapiens, UniProt O75365)?
Result: 89

Task: Please tell me: % Phosphatase Activity (compared to DMSO) PRL-3 of CN1CCC(=C2c3ccccc3CCc3sccc32)CC1.O=C(O)CC(O)C(=O)O [Pizotifen Malate] , system recombinant PRL-3 (Homo sapiens, UniProt O75365)?
Result: 95

Task: Please tell me: % Phosphatase Activity (compared to DMSO) PRL-3 of Cc1nc(Nc2ncc(C(=O)Nc3c(C)cccc3Cl)s2)cc(N2CCN(CCO)CC2)n1 [Dasatinib Monohydrate] , system recombinant PRL-3 (Homo sapiens, UniProt O75365)?
Result: 98

Task: Please tell me: % Phosphatase Activity (compared to DMSO) PRL-3 of "CCCCCCCCCC(=O)N[C@@H](Cc1c[nH]c2ccccc12)C(=O)N[C@H](CC(N)=O)C(=O)N[C@@H](CC(=O)O)C(=O)N[C@@H]1C(=O)NCC(=O)N[C@@H](CCCN)C(=O)N[C@@H](CC(=O)O)C(=O)N[C@H](C)C(=O)N[C@@H](CC(=O)O)C(=O)NCC(=O)N[C@H](CO)C(=O)N[C@@H]([C@H](C)CC(=O)O)C(=O)N[C@@H](CC(=O)c2ccccc2N)C(=O)O[C@@H]1C" , system recombinant PRL-3 (Homo sapiens, UniProt O75365)?
Result: 95
